- System: HCC1937
- RUN DESCRIPTION: normalised viability (% of control), CellTiter-Blue; higher = more viable cells (about 100 = DMSO control)
- APPLIED CONDITIONS: 1000 nM; incubation time: 72 h
Below, each entry is listed alongside its reported normalised viability.

>  <COMPOUND>
O=C(c1cc(Cc2n[nH]c(=O)c3ccccc23)ccc1F)N1CCN(C(=O)C2CC2)CC1

>  <normalised viability (%)>
58.4

$$$$
>  <COMPOUND>
CC(C)C(=O)Nc1ccc([N+](=O)[O-])c(C(F)(F)F)c1 [Flutamide]

>  <normalised viability (%)>
84.2

$$$$
>  <COMPOUND>
C[C@@H]1C[C@H]2[C@@H]3CCC4=CC(=O)C=C[C@]4(C)[C@@]3(F)[C@@H](O)C[C@]2(C)[C@@]1(O)C(=O)CO

>  <normalised viability (%)>
100

$$$$
>  <COMPOUND>
NC(=O)c1cccc2cn(-c3ccc([C@@H]4CCCNC4)cc3)nc12

>  <normalised viability (%)>
70.5

$$$$
>  <COMPOUND>
CO[C@H]1C[C@@H]2CC[C@@H](C)[C@@](O)(O2)C(=O)C(=O)N2CCCC[C@H]2C(=O)O[C@H]([C@H](C)C[C@@H]2CC[C@@H](O)[C@H](OC)C2)CC(=O)[C@H](C)/C=C(\C)[C@@H](O)[C@@H](OC)C(=O)[C@H](C)C[C@H](C)/C=C/C=C/C=C/1C

>  <normalised viability (%)>
59

$$$$
>  <COMPOUND>
CCN(CC)CCOc1ccc(C(=C(Cl)c2ccccc2)c2ccccc2)cc1

>  <normalised viability (%)>
117

$$$$
